PROTOCOL SUMMARY: Cytotoxicity against mock-infected african green monkey Vero 76 cells after 48 to 96 hrs by MTT assay
Assay type: cell-based
TEST PARAMETERS: chlorocebus sabaeus, mock-infected Vero 76 cells
This listing pairs molecules with measured CC50.
ASSAY READOUT: CC50

[[record]]
molecule = "CC1(c2nc3ccccc3[nH]2)CCC(C#N)C(C)(C)O1 (stereo not given)"
value_observed = "> 100 µM"

[[record]]
molecule = "c1ccc(-n2c(C[C@@H]3CCCN4CCCC[C@H]34)nc3ccccc32)cc1"
value_observed = "> 100 µM"

[[record]]
molecule = "c1ccc2[nH]c(C[C@H]3CCCN4CCCC[C@H]34)nc2c1"
value_observed = "> 100 µM"

[[record]]
molecule = "Clc1ccc(Cc2nc3cc(Cl)c(Cl)cc3n2C[C@@H]2CCCN3CCCC[C@H]23)cc1"
value_observed = "> 100 µM"

[[record]]
molecule = "CCCCn1c(Cc2ccc(Cl)c(Cl)c2)nc2cc(C(F)(F)F)ccc21"
value_observed = "> 100 µM"

[[record]]
molecule = "c1ccc2[nH]c(SC[C@@H]3CCCN4CCCC[C@H]34)nc2c1"
value_observed = "> 100 µM"

[[record]]
molecule = "CC(CC(=O)O)n1c(-c2ccccc2)nc2ccccc21 (stereo not given)"
value_observed = "> 100 µM"

[[record]]
molecule = "c1ccc(-n2c(C[C@H]3CCCN4CCCC[C@H]34)nc3ccccc32)cc1"
value_observed = "> 100 µM"

[[record]]
molecule = "Clc1ccc2nc(-c3ccccc3)n([C@H]3CCCN4CCCC[C@H]34)c2c1"
value_observed = "90 µM"

[[record]]
molecule = "Clc1ccc(Cc2nc3cc(Cl)c(Cl)cc3[nH]2)cc1Cl"
value_observed = "70 µM"

